Source listed as ChEMBL document CHEMBL3124885.

tested on: Mus musculus; test: Hepatic clearance in CD-1 mouse at 3 mg/kg, iv; assay type: ADME, organism-based, Liver; design: dose 3 mg/kg, route intravenous; conditions: in vivo
Quantity name: CLH (mL/min/kg)

[A] CN1C(=O)[C@]2(N=C1N)c1cc(-c3cncc(Cl)c3)ccc1O[C@H]1CCOC[C@@H]12 (racemic)
[B] CN1C(=O)[C@]2(N=C1N)c1cc(-c3cc(F)cc(Cl)c3)ccc1O[C@H]1CCOC[C@@H]12 (racemic)
Which record would sort first by descending CLH, A or B ? Please identify the chosen entry by its label.
A
(A: 110 mL/min/kg, B: 22 mL/min/kg)

[1] C[C@]12CCOC[C@@H]1[C@]1(COC(N)=N1)c1cc(-c3cc(F)cc(Cl)c3)ccc1O2
[2] CN1C(=O)[C@]2(N=C1N)c1cc(-c3cccnc3F)ccc1O[C@H]1CCOC[C@@H]12 (racemic)
I'm curious whether 1 or 2 has the smaller CLH number. Which is it? Label of pick, please.
1
